All values here come from the supplement of paper PMC12645437.

Recorded measurements of log2 fold change of degron read counts, one per entry
- measuredOn: T1, CRBN, Q96SW2
- T1 chain: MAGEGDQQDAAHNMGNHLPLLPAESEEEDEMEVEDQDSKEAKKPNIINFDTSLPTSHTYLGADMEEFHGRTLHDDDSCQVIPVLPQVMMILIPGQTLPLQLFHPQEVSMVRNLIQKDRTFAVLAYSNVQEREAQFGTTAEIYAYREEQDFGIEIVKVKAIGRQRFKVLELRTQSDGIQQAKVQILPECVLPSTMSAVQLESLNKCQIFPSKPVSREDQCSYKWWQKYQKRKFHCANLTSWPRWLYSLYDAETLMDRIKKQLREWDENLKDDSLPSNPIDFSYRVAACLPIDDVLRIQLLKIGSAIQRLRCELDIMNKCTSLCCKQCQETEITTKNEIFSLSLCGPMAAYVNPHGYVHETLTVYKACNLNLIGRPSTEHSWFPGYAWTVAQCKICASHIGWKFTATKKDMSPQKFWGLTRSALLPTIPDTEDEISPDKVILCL
- experimentalDetails: log2 fold change of degron read counts, EGFP-low vs EGFP+ sorted cells (limma voom), compound-induced degradation; higher = more compound-induced degradation of the degron-EGFP fusion; degrons are variants of IKZF1/3 zinc finger 2; compound dose not given here;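 further: pooled lentiviral library of zinc finger degron-EGFP fusions in mCherry-positive Jurkat cells, FACS-sorted after compound exposure, with degron abundance counted by next-generation sequencing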
- conditionParameters: Jurkat; 18 h; compound: compound 22 (5-morpholino-thalidomide)
In all, about 8,300 sequences were measured (“log2 fold change of degron read counts, EGFP-low vs EGFP+ sorted cells (limma voom), compound-induced degradation”: median about -1.1, highest 2% from about 3.2 on). Shown is part of a subset that was picked to be rich in the highest values.
Simply state the number, no unit and no words.

| sequenceRecord | measure | recordedMeasurement |
| --- | --- | --- |
| FSCPQCGAHFTQKGNLLRHIKL [46F_47S_49P_50Q_52G_53A_54H_55F_67L_, Q9UKT9] | log2 fold change of degron read counts | -2.04 |
| FICNVCGALFTQKGNLLRHIKL [46F_47I_49N_50V_52G_53A_54L_55F_67L_, Q9UKT9] | log2 fold change of degron read counts | -1.66 |
| FFCDICGALFTQKGNLLRHIKL [46F_47F_49D_50I_52G_53A_54L_55F_67L_, Q9UKT9] | log2 fold change of degron read counts | 1.43 |
| FDCPICGHEFTQKGNLLRHIKL [46F_47D_49P_50I_52G_53H_54E_55F_67L_, Q9UKT9] | log2 fold change of degron read counts | -2.96 |
| FWCDICGALFTQKGNLLRHIKL [46F_47W_49D_50I_52G_53A_54L_55F_67L_, Q9UKT9] | log2 fold change of degron read counts | 2.23 |

Please look at the following sequence next.
What does the record list as log2 fold change of degron read counts for FLCPQCGAIFTQKGNLLRHIKL [46F_47L_49P_50Q_52G_53A_54I_55F_67L_, Q9UKT9] ?
-1.54
